Reference source for all entries: the supplement of paper PMC9170038

- Tested on: K4 kissing-loop RNA reporter;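 also: bound reporter read as fluorescence of individual clusters on recovered sequencing chips by microscopy, with normalized cluster intensities fitted with a binding model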
- TEST: apparent KD of K4 kissing-loop reporter; higher = weaker reporter binding
- CONDITIONS: Eterna round: R107; input ligand: arginine 13.2 mM
Please mark True if the recorded apparent KD of K4 kissing-loop reporter is equal to or greater than 300 nM, and False if it falls below.

| RECORD SEQUENCE | QUALITATIVE LABEL |
| --- | --- |
| UGGAUAUAGUGAUGUUAUAUAGAGAUGGAUACCAGCAAAGAGAAUUGCCCUUGGCAGCCGAAAGAAGUAUCAUUAGAGAAGAAUG [ExTheophyl.Af] | False |
| AUUUAUUCGUACUACUAGUGAUGUUAGUAACGAGGACCGGUACGGCCGCCACUCGAUUUGGCGAUUUUGUAUUUUUUAUUCUAUA [JR_SSTryptoA_Sub011] | True |
| CGCAGUGAUGUUGCUAUUAUUCUUGGUUAACGAGGACCGGUACGGCCGCCACUCGAUUUCUAUCUAAUCCAGUGUUUUUUUGAGU [JR_ExcTryptoA_Sub003] | True |
| AAAUAGAUCAGUCACCCAGUGAUGUUGGAAGGAGCGUGCGAAAGCACAGGUAGGUCGCCAAAACCUAAGUGGCUGAUCAAAAUAA [#SwitchBubble 4 #K4Early] | True |
| UUUGGAGUGGGAGGAUAUCCUAAUAUGGGUGAUGUUAGCGAUGUUGAAGGUGUAGUGAUGUUAUGCGGAGAAGGCCCACUGUAGA [BDazzled - #19 - Exc. FMN B] | False |
| UUGGAAAUCAGAAGGAGCGUCUAAAAUAAGAGAACCAGUGAUGUUGGUUUUAUUUAAUGAAGACAGGUAGGUCGCUGAAUUUUUA [Same State Arginie B GF 19] | False |
